Experimental Target: MurF (UniProt P11880)
Sequence (whole entry): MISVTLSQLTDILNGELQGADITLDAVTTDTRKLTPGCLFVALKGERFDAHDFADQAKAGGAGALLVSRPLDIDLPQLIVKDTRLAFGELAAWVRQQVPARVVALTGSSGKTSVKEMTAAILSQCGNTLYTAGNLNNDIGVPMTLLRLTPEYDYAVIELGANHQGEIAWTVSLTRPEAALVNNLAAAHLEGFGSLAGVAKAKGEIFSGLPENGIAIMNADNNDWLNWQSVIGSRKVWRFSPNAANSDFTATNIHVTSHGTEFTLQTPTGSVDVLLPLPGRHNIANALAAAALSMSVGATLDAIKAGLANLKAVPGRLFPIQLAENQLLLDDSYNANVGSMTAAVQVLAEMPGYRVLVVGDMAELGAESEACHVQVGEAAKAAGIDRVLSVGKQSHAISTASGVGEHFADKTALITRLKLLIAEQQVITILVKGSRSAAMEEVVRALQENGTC
Assay Summary: relative enzymatic activity vs untreated control (fraction); higher = less inhibition
Experimental Conditions: 100 µM; incubation time: 2 h at 37 C
Measured relative enzymatic activity by item

- Molecule: "O=c1[nH]c(=O)n([C@@H]2C[C@@H](O)[C@@H](CO)O2)cc1F"
  Experimental Target: "MurF (UniProt P11880)"
  relative enzymatic activity: 1.01
- Molecule: "O=c1[nH]cc(F)c(=O)[nH]1"
  Experimental Target: "MurF (UniProt P11880)"
  relative enzymatic activity: 0.972
- Molecule: "Oc1ccc(Cl)c2cccnc12"
  Experimental Target: "MurF (UniProt P11880)"
  relative enzymatic activity: 1.02
- Molecule: "Cl.O=C1CC2(CCCC2)CC(=O)N1CCCCN1CCN(c2ncccn2)CC1"
  Experimental Target: "MurF (UniProt P11880)"
  relative enzymatic activity: 0.97
- Molecule: "CON=C(C(=O)N[C@@H]1C(=O)N2C(C(=O)O)=C(CSc3nc(=O)c(O)nn3C)CS[C@H]12)c1csc(N)n1"
  Experimental Target: "MurF (UniProt P11880)"
  relative enzymatic activity: 0.955
- Molecule: "CC[C@H]1OC(=O)C[C@@H](O)[C@H](C)[C@@H](O[C@@H]2O[C@H](C)C[C@H](N(C)C)[C@H]2O)[C@@H](CC=O)C[C@@H](C)C(=O)/C=C/[C@]2(C)O[C@H]2[C@@H]1C"
  Experimental Target: "MurF (UniProt P11880)"
  relative enzymatic activity: 1.06
- Molecule: "O=C1C=CC(=O)N1"
  Experimental Target: "MurF (UniProt P11880)"
  relative enzymatic activity: 0.951
- Molecule: "CN(C)CCOC(c1ccccc1)c1ccccc1.Cn1c(=O)c2[nH]c(Cl)nc2n(C)c1=O"
  Experimental Target: "MurF (UniProt P11880)"
  relative enzymatic activity: 0.534
- Molecule: "CO/N=C1\\CN(c2nc3c(cc2F)c(=O)c(C(=O)O)cn3C2CC2)C[C@@H]1CN"
  Experimental Target: "MurF (UniProt P11880)"
  relative enzymatic activity: 0.964
- Molecule: "CC(O)C1C(=O)N2C(C(=O)O)=C(SC3CNC(C(=O)N(C)C)C3)C(C)C12 (centres undefined)"
  Experimental Target: "MurF (UniProt P11880)"
  relative enzymatic activity: 0.584
- Molecule: "CCn1cc(C(=O)O)c(=O)c2cc(F)c(N3CCN(C)CC3)cc21.CS(=O)(=O)O"
  Experimental Target: "MurF (UniProt P11880)"
  relative enzymatic activity: 1.11
- Molecule: "CON=C(C(=O)N[C@@H]1C(=O)N2C(C(=O)OCOC(=O)C(C)(C)C)=C(C=Cc3scnc3C)CS[C@H]12)c1csc(N)n1"
  Experimental Target: "MurF (UniProt P11880)"
  relative enzymatic activity: 0.855
- Molecule: "COc1ccc2c(c1OC)C(=O)OC2C1c2c(cc3c(c2OC)OCO3)CCN1C.Cl (centres undefined)"
  Experimental Target: "MurF (UniProt P11880)"
  relative enzymatic activity: 0.967
- Molecule: "CCCCCCCCCCCCC[N+](C)(C)Cc1ccccc1.O.[Cl-]"
  Experimental Target: "MurF (UniProt P11880)"
  relative enzymatic activity: 0.102
- Molecule: "N[C@@H]1[C@H]2CN(c3nc4c(cc3F)c(=O)c(C(=O)O)cn4-c3ccc(F)cc3F)C[C@@H]12"
  Experimental Target: "MurF (UniProt P11880)"
  relative enzymatic activity: 0.928
- Molecule: "CC1CN(c2c(F)c(N)c3c(=O)c(C(=O)O)cn(C4CC4)c3c2F)CC(C)N1 (centres undefined)"
  Experimental Target: "MurF (UniProt P11880)"
  relative enzymatic activity: 0.543
- Molecule: "CON=C(C(=O)NC1C(=O)N2C(C(=O)O)=C(CSC(=O)c3ccco3)CSC12)c1csc(N)n1.Cl (centres undefined)"
  Experimental Target: "MurF (UniProt P11880)"
  relative enzymatic activity: 0.95
- Molecule: "C=CC1=C(C(=O)O)N2C(=O)[C@@H](NC(=O)/C(=N\\OCC(=O)O)c3csc(N)n3)[C@H]2SC1"
  Experimental Target: "MurF (UniProt P11880)"
  relative enzymatic activity: 0.954
- Molecule: "Cc1cc(O)c(C(=O)NC(C(=O)NC2C(=O)N3C(C(=O)O)=C(CSc4nnnn4C)CSC23)c2ccc(O)cc2)cn1 (centres undefined)"
  Experimental Target: "MurF (UniProt P11880)"
  relative enzymatic activity: 0.945

* * *

Experimental Target: MurD (UniProt P14900)
Sequence (P14900 whole entry): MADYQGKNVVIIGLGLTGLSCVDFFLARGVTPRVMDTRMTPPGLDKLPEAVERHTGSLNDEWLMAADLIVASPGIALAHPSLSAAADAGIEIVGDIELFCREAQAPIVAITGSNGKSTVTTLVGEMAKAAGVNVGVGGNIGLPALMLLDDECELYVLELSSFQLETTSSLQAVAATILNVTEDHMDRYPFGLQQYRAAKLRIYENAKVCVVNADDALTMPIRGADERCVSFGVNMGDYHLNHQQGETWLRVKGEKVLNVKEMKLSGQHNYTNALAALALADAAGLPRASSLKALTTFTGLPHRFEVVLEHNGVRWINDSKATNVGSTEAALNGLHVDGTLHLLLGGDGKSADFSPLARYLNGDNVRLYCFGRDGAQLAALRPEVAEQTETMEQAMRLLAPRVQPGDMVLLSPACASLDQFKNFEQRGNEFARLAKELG
Assay Summary: relative enzymatic activity vs untreated control (fraction); higher = less inhibition
Experimental Conditions: 100 µM; incubation time: 2 h at 37 C
Measured Parameter: relative enzymatic activity

- Compound: "O=[N+]([O-])c1ccc(O)c2ncccc12"
  Experimental Target: "MurD (UniProt P14900)"
  Experimental Value: 0.588
- Compound: "NC[C@H]1O[C@H](O[C@H]2[C@H](O)[C@@H](O[C@H]3O[C@H](CO)[C@@H](O)[C@H](N)[C@H]3O)[C@H](N)C[C@@H]2N)[C@H](N)[C@@H](O)[C@@H]1O"
  Experimental Target: "MurD (UniProt P14900)"
  Experimental Value: 0.605
- Compound: "CN1CCN(c2c(F)cc3c(=O)c(C(=O)O)cn4c3c2OCN4C)CC1"
  Experimental Target: "MurD (UniProt P14900)"
  Experimental Value: 0.624
- Compound: "CO/N=C(\\C(=O)N[C@@H]1C(=O)N2C(C(=O)O)=C(CSc3nnnn3C)CS[C@H]12)c1csc(N)n1"
  Experimental Target: "MurD (UniProt P14900)"
  Experimental Value: 0.611
- Compound: "NC[C@H]1O[C@H](O[C@H]2[C@H](O)[C@@H](O[C@H]3O[C@H](CO)[C@@H](O)[C@H](N)[C@H]3O)[C@H](N)C[C@@H]2N)[C@H](N)C[C@@H]1O"
  Experimental Target: "MurD (UniProt P14900)"
  Experimental Value: 0.609
- Compound: "COC1(NC(=O)C(C(=O)[O-])c2ccc(O)cc2)C(=O)N2C(C(=O)[O-])=C(CSc3nnnn3C)COC21.[Na+].[Na+] (stereo not drawn)"
  Experimental Target: "MurD (UniProt P14900)"
  Experimental Value: 0.584
- Compound: "Cl.O=C(O)c1cn(-c2ccc(F)cc2)c2cc(N3CCNCC3)c(F)cc2c1=O"
  Experimental Target: "MurD (UniProt P14900)"
  Experimental Value: 0.595
- Compound: "CC[C@H]1OC(=O)C[C@@H](O)[C@H](C)[C@@H](O[C@@H]2O[C@H](C)C[C@H](N(C)C)[C@H]2O)[C@@H](CC=O)C[C@@H](C)C(=O)/C=C/[C@]2(C)O[C@H]2[C@@H]1C"
  Experimental Target: "MurD (UniProt P14900)"
  Experimental Value: 0.55
- Compound: "CC[C@H](C)C[C@H](C)CCCCCCCCC(=O)N[C@H]1C[C@@H](O)[C@@H](NCCN)NC(=O)[C@@H]2[C@@H](O)CCN2C(=O)[C@H]([C@H](O)CCN)NC(=O)[C@H]([C@H](O)[C@@H](O)c2ccc(O)cc2)NC(=O)[C@@H]2C[C@@H](O)CN2C(=O)[C@H]([C@@H](C)O)NC1=O"
  Experimental Target: "MurD (UniProt P14900)"
  Experimental Value: 0.706
- Compound: "CNC1C(OC2C(OC3C(O)C(O)C(NC(=N)N)C(O)C3NC(=N)N)OC(C)C2(O)CO)OC(CO)C(O)C1O.O=S(=O)(O)O (stereo not drawn)"
  Experimental Target: "MurD (UniProt P14900)"
  Experimental Value: 0.65
- Compound: "CN(C)CCOC(c1ccccc1)c1ccccc1.Cn1c(=O)c2[nH]c(Cl)nc2n(C)c1=O"
  Experimental Target: "MurD (UniProt P14900)"
  Experimental Value: 0.596
- Compound: "NC(=O)[C@@H]1C(=O)C[C@@H]2C[C@@H]3Cc4cccc(O)c4C(=O)[C@@H]3C(=O)[C@]2(O)C1=O"
  Experimental Target: "MurD (UniProt P14900)"
  Experimental Value: 0.62
- Compound: "CC[C@H]1OC(=O)[C@H](C)[C@@H](O[C@H]2C[C@@](C)(OC)[C@@H](O)[C@H](C)O2)[C@H](C)[C@@H](O[C@@H]2O[C@H](C)C[C@H](N(C)C)[C@H]2O)[C@](C)(OC)C[C@@H](C)C(=O)[C@H](C)[C@@H](O)[C@]1(C)O"
  Experimental Target: "MurD (UniProt P14900)"
  Experimental Value: 0.58

meta.source: the supplement of paper PMC9446081
